pIC50: −log10 of the molar value. Counter-ions that a name gives are not always drawn.
Quick note: these are pIC50 numbers for system: Vps34 (Homo sapiens (Human), UniProt Q8NEB9)
Sequence (Q8NEB9 whole entry): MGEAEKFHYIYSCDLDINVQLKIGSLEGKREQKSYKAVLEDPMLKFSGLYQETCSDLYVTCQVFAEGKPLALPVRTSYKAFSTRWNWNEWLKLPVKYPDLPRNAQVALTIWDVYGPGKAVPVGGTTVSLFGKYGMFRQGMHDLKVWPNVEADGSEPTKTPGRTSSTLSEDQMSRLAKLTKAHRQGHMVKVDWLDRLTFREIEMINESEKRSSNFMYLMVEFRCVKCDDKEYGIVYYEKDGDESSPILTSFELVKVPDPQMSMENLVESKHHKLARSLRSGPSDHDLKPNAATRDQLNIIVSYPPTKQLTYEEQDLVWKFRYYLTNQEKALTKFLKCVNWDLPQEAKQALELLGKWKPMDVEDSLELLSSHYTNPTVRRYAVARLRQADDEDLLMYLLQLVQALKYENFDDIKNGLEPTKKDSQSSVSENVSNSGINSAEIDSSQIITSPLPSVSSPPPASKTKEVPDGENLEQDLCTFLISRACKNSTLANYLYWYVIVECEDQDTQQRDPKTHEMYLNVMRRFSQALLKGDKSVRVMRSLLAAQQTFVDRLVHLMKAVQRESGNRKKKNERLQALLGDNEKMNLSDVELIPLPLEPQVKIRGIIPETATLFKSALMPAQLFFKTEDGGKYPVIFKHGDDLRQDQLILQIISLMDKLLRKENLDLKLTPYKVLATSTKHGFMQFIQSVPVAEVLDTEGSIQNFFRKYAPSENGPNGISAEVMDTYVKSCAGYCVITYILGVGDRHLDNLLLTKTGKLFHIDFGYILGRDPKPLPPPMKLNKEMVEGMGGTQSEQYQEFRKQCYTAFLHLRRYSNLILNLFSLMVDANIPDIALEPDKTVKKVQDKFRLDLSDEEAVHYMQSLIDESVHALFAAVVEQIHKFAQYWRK

# molecule, pIC50
data = [
    ("Cc1ncc(-c2cc(-c3cc(S(=O)(=O)NCC(F)F)ccc3C)cnc2N)o1 [Example 104.10]", 5.82),
    ("Cc1nnc(-c2cc(-c3cc(S(=O)(=O)NCCC(C)(C)O)ccc3C)cnc2N)s1 [Example 105]", "< 5.00"),
    ("Cc1ccc(S(=O)(=O)N[C@H]2CC[C@H](O)CC2)cc1-c1cnc(N)c(-c2nc(C(F)F)no2)c1 [Example 70, hydrochloride]", "< 5.00"),
    ("Cc1ccc(S(=O)(=O)NCC(C)(C)O)cc1-c1cnc(N)c(-c2ncco2)c1 [Example 94b]", "< 5.00"),
    ("Cc1ccc(S(=O)(=O)NCC(C)(C)O)cc1-c1cnc(N)c(-c2nc(C(C)C)no2)c1 [Example 5.1, hydrochloride]", "< 5.00"),
    ("Cc1noc(-c2cc(-c3cc(S(=O)(=O)NCC4(O)CC4)ccc3C)cnc2N)n1 [Example 37.19]", "< 5.00"),
    ("Cc1cc(-c2cc(-c3cc(S(=O)(=O)NC4CC4)ccc3C)cnc2N)on1 [Example 31]", "< 5.00"),
    ("Cc1ncc(-c2cc(-c3cc(S(N)(=O)=O)ccc3C)cnc2N)o1 [Example 33]", 5.41),
    ("Cc1ncc(-c2cc(-c3cc(S(=O)(=O)N[C@H]4CC[C@H](CO)CC4)ccc3C)cnc2N)o1 [Example 104.11]", 6.52),
    ("Cc1ncc(-c2cc(-c3cc(S(=O)(=O)NCC(C)(C)O)ccc3C)cnc2N)s1 [Example 15]", 5.79),
    ("Cc1cc(-c2cc(-c3cc(S(=O)(=O)NC[C@@H]4CCOC4)ccc3C)cnc2N)on1 [Example 38]", "< 5.00"),
    ("Cc1noc(-c2cc(-c3cc(S(=O)(=O)N[C@H]4C[C@@H](O)C4)ccc3C)cnc2N)n1 [Example 5.5a]", "< 5.00"),
    ("Cc1noc(-c2cc(-c3cc(S(=O)(=O)N4CC(CO)C4)ccc3C)cnc2N)n1 [Example 37.39]", "< 5.00"),
    ("Cc1ncc(-c2cc(-c3cc(S(=O)(=O)NCCC(C)(C)O)ccc3C)cnc2N)o1 [Example 13, hydrochloride salt]", "< 5.00"),
    ("Cc1noc(-c2cc(-c3cc(S(=O)(=O)NO[C@H]4C[C@H](O)C4)ccc3C)cnc2N)n1 [Example 55]", "< 5.00"),
    ("Cc1cc(-c2cc(-c3cc(S(=O)(=O)N4CC[C@@H](O)C4)ccc3C)cnc2N)on1 [Example 37.24]", "< 5.00"),
    ("Cc1ccc(S(=O)(=O)NCC(C)(C)O)cc1-c1cnc(N)c(-c2cnn(C)n2)c1 [Example 4.4, hydrochloride]", "< 5.00"),
    ("Cc1ccc(S(=O)(=O)NCCC(C)(C)O)cc1-c1cnc(N)c(-c2cnn(C)n2)c1 [Example 106]", "< 5.00"),
    ("Cc1noc(-c2cc(-c3cc(S(=O)(=O)NCCC4(O)CCCCC4)ccc3C)cnc2N)n1 [Example 37.31]", "< 5.00"),
    ("Cc1ccc(S(=O)(=O)NCC(C)(C)O)cc1-c1cnc(N)c(-c2cn(C)nn2)c1 [Example 63, hydrochloride]", "< 5.00"),
    ("Cc1noc(-c2cc(-c3cc(S(=O)(=O)N[C@H]4CC[C@H](O)CC4)ccc3C)cnc2N)n1 [Example 12, hydrochloride salt]", "< 5.00"),
    ("CCN1CCC[C@@H]1CNS(=O)(=O)c1ccc(C)c(-c2cnc(N)c(-c3cc(C)no3)c2)c1 [Example 37.27]", "< 5.00"),
    ("Cc1cc(-c2cc(-c3cc(S(=O)(=O)N[C@@H]4CCNC(=O)C4)ccc3C)cnc2N)on1 [Example 37.4]", "< 5.00"),
    ("Cc1ccc(S(=O)(=O)NCCC(C)(C)O)cc1-c1cnc(N)c(-c2ccncc2)c1 [Example 18]", "< 5.04"),
    ("Cc1cc(-c2cc(-c3cc(S(=O)(=O)NCC4(O)CCCCC4)ccc3C)cnc2N)on1 [Example 37.9]", "< 5.00"),
    ("Cc1ccc(S(=O)(=O)NCC(C)(C)O)cc1-c1cnc(N)c(-c2cnco2)c1 [Example 94a]", "< 5.00"),
    ("Cc1cc(-c2cc(-c3cc(S(=O)(=O)NCCC4CCOCC4)ccc3C)cnc2N)on1 [Example 19.12, trifluoroacetic acid salt]", "< 5.00"),
    ("Cc1noc(-c2cc(-c3cc(S(=O)(=O)NCCN)ccc3C)cnc2N)n1 [Example 37.29]", "< 5.00"),
    ("Cc1ccc(S(=O)(=O)NOCC(C)(C)O)cc1-c1cnc(N)c(-c2cnn(CC(F)(F)F)c2)c1 [Example 34, hydrochloride]", "< 5.00"),
    ("Cc1ncc(-c2cc(-c3cc(S(=O)(=O)NCCCO)ccc3C)cnc2N)o1 [Example 104.6]", 5.72),
]
